Provide the recorded aptazyme ON/OFF ratio for the entries that follow.
B1: Pistol ribozyme (parent)
chain: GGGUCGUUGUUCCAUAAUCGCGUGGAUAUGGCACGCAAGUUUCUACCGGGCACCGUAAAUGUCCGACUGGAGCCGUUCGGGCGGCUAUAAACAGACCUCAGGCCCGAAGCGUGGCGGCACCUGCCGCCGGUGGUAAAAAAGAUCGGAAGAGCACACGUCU

variants of: B1; experiment: aptazyme ON/OFF ratio, guanine; higher = stronger switching; co-transcriptional cleavage with and without guanine

Q: Query (variant): U7G G9C C13U ; field requested: aptazyme ON/OFF ratio
A: 1.45

Q: Same question for U7G G9C U11A C12G please.
A: 1.65

Q: Same question for U7G U8C G9C U10A U11A C12G C13U please.
A: 1.13

Q: Same question for U7C U8G G9U U10G C12A please.
A: 1.15

Q: Same question for U7C U8A G9A U10A U11A C13G please.
A: 1.12

Q: Same question for U7G U8C G9A C12A C13A please.
A: 1.08

Q: Same question for U8C U10C U11A C13G please.
A: 1.23

Q: Same question for U7G G9A U10A U11C C12U please.
A: 1.05

Q: Same question for U7G G9U U10G U11C C12U C13U please.
A: 1.44

Q: Same question for U7A G9U U10C C12U C13G please.
A: 1.07

Q: Same question for U7A G9C C12A C13G please.
A: 1.04

Q: Same question for U10C U11A C12G please.
A: 1.47

Q: Same question for U7A U8C G9U U10G U11A C12A please.
A: 1.14

Q: Same question for U8G U10A U11G C13A please.
A: 1.08

Q: Same question for U7A U11A C12G C13U please.
A: 1.24

Q: Same question for U7C U8G G9A U10A U11G C13U please.
A: 1.27

Q: Same question for U7G U8A G9U U10A U11G C12A C13G please.
A: 1.06

Q: Same question for U7C G9A U11A C12A C13G please.
A: 1.12

Q: Same question for U7A U8A G9A U10A C12U please.
A: 1.23

Q: Same question for G9C U11C C12G C13U please.
A: 1.19

Q: Same question for U7A U10G U11C please.
A: 1.04

Q: Same question for U8A G9A U10G U11C C13A please.
A: 1.07
